Recorded Herbicidal action (damage score) DIGSA, one value per entry.
System: Monocotyledonous and dicotyledonous test plants
Test: Herbicidal action, application pre-emergence
Format: in vivo
Details: Digitaria sanguinalis, spray solution 1000 mg/l, scale 0-10
Experimental: Monocotyledonous and dicotyledonous test plants were sown in sterilised standard soil in seed trays each having 96 cells. […] The plants were grown on in the climatic chamber until the test was evaluated (10=total damage to plant, 0=no damage to plant) after 9 or 13 days.

MOLECULE | TESTED TARGET | Herbicidal action (damage score) DIGSA
CC1(C)CC([S+]([O-])C(F)c2cn(C(C)(C)C)nn2)=NO1 (mixture of isomers) | Monocotyledonous and dicotyledonous test plants | 9
C=CCn1nc(C(F)[S+]([O-])C2=NOC(C)(C)C2)c(C(F)(F)F)n1 (mixture of isomers) | Monocotyledonous and dicotyledonous test plants | 10
CCn1ncc(C(F)(F)[S+]([O-])C2=NOC(C)(C)C2)n1 (centres unmarked) | Monocotyledonous and dicotyledonous test plants | 9
CC1(C)CC(S(=O)(=O)C(F)c2nn(C3CCCC3)nc2C(F)(F)F)=NO1 (racemic) | Monocotyledonous and dicotyledonous test plants | 9
Cn1nc(C(F)(F)F)c(C(F)(Cl)S(=O)(=O)C2=NOC(C)(C)C2)n1 (racemic) | Monocotyledonous and dicotyledonous test plants | 10

====

Tested on: Monocotyledonous and dicotyledonous test plants
Assay: Herbicidal action, application pre-emergence
Type: in vivo
Parameters: key: 10=total damage to plant; 0=no damage to plant
Conditions: Digitaria sanguinalis, spray solution 1000 mg/l, scale 0-10
Experimental: Monocotyledonous and dicotyledonous test plants were sown in sterilised standard soil in seed trays each having 96 cells. […] The plants were grown on in the climatic chamber until the test was evaluated (10=total damage to plant, 0=no damage to plant) after 9 or 13 days.

COMPOUND | Herbicidal action (damage score) DIGSA
C=CCn1nc(C(F)(F)F)c(C(F)(F)[S+]([O-])C2=NOC(C)(C)C2)n1 (racemic) [1.34] | 10
COCCn1nc(C(F)(F)F)c(C(F)(F)S(=O)(=O)C2=NOC(C)(C)C2)n1 [1.23] | 10
Cn1nnc(Br)c1C(F)(F)S(=O)(=O)C1=NOC(C)(C)C1 [Compound No. 3.04] | 9
Cc1nn(C(F)F)nc1C(F)S(=O)(=O)C1=NOC(C)(C)C1 (racemic) [Compound No. 1.19] | 10
CC1(C)CC(S(=O)(=O)C(F)c2cn(C(C)(C)C)nn2)=NO1 (centres unmarked) [Compound No. 2.01] | 9
CCn1ncc(C(F)(F)S(=O)(=O)C2=NOC(C)(C)C2)n1 [1.38] | 9
Cc1nn(C(F)F)nc1C(F)(F)[S+]([O-])C1=NOC(C)(C)C1 (racemic) [1.22] | 10
Cn1nnc(C(F)(F)F)c1C(F)(F)[S+]([O-])C1=NOC(C)(C)C1 (centres unmarked) [Compound No. 3.03] | 9
Cn1ncc(C(F)(F)[S+]([O-])C2=NOC(C)(C)C2)n1 (centres unmarked) [1.36] | 10
Cn1nc(CF)c(C(F)(Cl)S(=O)(=O)C2=NOC(C)(C)C2)n1 (centres unmarked) [Compound No. 1.03] | 10
Cn1nnc(C(F)(F)F)c1C(F)S(=O)(=O)C1=NOC(C)(C)C1 (centres unmarked) [Compound No. 3.01] | 10
